testedSystem: HDAC6 human recombinant (Homo sapiens)
test: Inhibition of HDAC6 activity (fluorimetric assay)
reportedConditions: test concentrations 0.1, 1, 10, 100 and 1000 nM; 37° C., 60 minutes
assayMetric: IC50

- smilesText: "CC(C)(O)CN1CC=C(c2cnc3c(ccn3Cc3ccc(C(=O)NO)cc3)c2)CC1"
  valueMeasured: "39 nM"
- smilesText: "CC(C)(C)CCN1CCN(c2cnc3c(ccn3Cc3ccc(C(=O)NO)cc3)c2)CC1"
  valueMeasured: "12.1 nM"
- smilesText: "O=C(NO)c1ccc(Cn2ccc3c(N4CCN(Cc5cccnc5)CC4)ccnc32)cc1"
  valueMeasured: "11.7 nM"
- smilesText: "O=C(NO)c1ccc(Cn2ccc3cc(C4CCN(Cc5ccccc5)CC4)cnc32)cc1"
  valueMeasured: "58 nM"
- smilesText: "O=C(NO)c1ccc(Cn2ccc3cc(-c4ccccc4)cnc32)cc1"
  valueMeasured: "17 nM"
- smilesText: "O=C(NO)c1ccc(Cn2ccc3c(N4CCN(Cc5ccc(C(F)(F)F)cc5)CC4)ccnc32)cc1"
  valueMeasured: "30 nM"
- smilesText: "O=C(NO)c1ccc(Cn2ccc3c(-c4cncnc4)ccnc32)cc1"
  valueMeasured: "4 nM"
- smilesText: "O=C(O)CCN1CCC(c2ccnc3c2ccn3Cc2ccc(C(=O)NO)cc2)CC1"
  valueMeasured: "4.5 nM"
- smilesText: "CC(C)(O)CN1CCC(c2cnc3c(ccn3Cc3ccc(C(=O)NO)cc3)c2)CC1"
  valueMeasured: "12 nM"

----------
testedSystem: HDAC1 (Homo sapiens)
Sequence (Q13547 whole entry): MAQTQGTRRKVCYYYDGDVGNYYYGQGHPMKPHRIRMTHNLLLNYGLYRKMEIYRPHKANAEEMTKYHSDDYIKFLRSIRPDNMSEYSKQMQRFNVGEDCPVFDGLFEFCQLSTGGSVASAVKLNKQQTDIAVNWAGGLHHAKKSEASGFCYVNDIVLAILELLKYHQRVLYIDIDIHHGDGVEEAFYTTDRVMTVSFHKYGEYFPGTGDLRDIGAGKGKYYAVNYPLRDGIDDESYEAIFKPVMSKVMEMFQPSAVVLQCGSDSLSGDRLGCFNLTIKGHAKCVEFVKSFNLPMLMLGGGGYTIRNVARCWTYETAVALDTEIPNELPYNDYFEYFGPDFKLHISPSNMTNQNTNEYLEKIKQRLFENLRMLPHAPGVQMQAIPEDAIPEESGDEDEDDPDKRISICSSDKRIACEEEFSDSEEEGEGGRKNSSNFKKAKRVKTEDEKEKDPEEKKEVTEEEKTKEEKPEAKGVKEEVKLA
We label by threshold. Values of IC50 strictly beneath 1000 nM are criterion met. Values of 1000 nM and up are criterion not met.

- compound: "C[C@@H]1CN(c2ccnc3c2ccn3Cc2ccc(C(=O)NO)cc2)C[C@H](C)N1Cc1ccccc1 [Compound 990]"
  testedSystem: "HDAC1 (Homo sapiens)"
  assignedLabel: "criterion not met"
- compound: "O=C(NO)c1ccc(Cn2ccc3ccc(C4CCN(Cc5cccnc5)CC4)nc32)cc1 [Compound 992]"
  testedSystem: "HDAC1 (Homo sapiens)"
  assignedLabel: "criterion met"
- compound: "CC(C)(C)CCN1CCC(c2cnc3c(ccn3Cc3ccc(C(=O)NO)cc3)c2)CC1 [Compound 864]"
  testedSystem: "HDAC1 (Homo sapiens)"
  assignedLabel: "criterion not met"
- compound: "O=C(NO)c1ccc(Cn2ccc3cc(C4CCN(Cc5ccc(CN6CCOCC6)cc5)CC4)cnc32)cc1 [Compound 882]"
  testedSystem: "HDAC1 (Homo sapiens)"
  assignedLabel: "criterion not met"
- compound: "O=C(NO)c1ccc(Cn2ccc3cc(C4CCN(Cc5cccc(F)c5)CC4)cnc32)cc1 [Compound 781]"
  testedSystem: "HDAC1 (Homo sapiens)"
  assignedLabel: "criterion not met"
- compound: "O=C(NO)c1ccc(Cn2ccc3cc(C4CCN(Cc5ccncc5)CC4)cnc32)cc1 [Compound 841]"
  testedSystem: "HDAC1 (Homo sapiens)"
  assignedLabel: "criterion met"
- compound: "COc1ccc(CN2CCC(c3ccnc4c3ccn4Cc3ccc(C(=O)NO)cc3)CC2)cc1 [Compound 959]"
  testedSystem: "HDAC1 (Homo sapiens)"
  assignedLabel: "criterion met"
- compound: "C[C@@H]1CN(c2cnc3c(ccn3Cc3ccc(C(=O)NO)cc3)c2)C[C@H](C)N1CC(C)(C)F [Compound 866]"
  testedSystem: "HDAC1 (Homo sapiens)"
  assignedLabel: "criterion not met"

----------
testedSystem: HDAC6 human recombinant (Homo sapiens)
Sequence (Q9UBN7 1-1215): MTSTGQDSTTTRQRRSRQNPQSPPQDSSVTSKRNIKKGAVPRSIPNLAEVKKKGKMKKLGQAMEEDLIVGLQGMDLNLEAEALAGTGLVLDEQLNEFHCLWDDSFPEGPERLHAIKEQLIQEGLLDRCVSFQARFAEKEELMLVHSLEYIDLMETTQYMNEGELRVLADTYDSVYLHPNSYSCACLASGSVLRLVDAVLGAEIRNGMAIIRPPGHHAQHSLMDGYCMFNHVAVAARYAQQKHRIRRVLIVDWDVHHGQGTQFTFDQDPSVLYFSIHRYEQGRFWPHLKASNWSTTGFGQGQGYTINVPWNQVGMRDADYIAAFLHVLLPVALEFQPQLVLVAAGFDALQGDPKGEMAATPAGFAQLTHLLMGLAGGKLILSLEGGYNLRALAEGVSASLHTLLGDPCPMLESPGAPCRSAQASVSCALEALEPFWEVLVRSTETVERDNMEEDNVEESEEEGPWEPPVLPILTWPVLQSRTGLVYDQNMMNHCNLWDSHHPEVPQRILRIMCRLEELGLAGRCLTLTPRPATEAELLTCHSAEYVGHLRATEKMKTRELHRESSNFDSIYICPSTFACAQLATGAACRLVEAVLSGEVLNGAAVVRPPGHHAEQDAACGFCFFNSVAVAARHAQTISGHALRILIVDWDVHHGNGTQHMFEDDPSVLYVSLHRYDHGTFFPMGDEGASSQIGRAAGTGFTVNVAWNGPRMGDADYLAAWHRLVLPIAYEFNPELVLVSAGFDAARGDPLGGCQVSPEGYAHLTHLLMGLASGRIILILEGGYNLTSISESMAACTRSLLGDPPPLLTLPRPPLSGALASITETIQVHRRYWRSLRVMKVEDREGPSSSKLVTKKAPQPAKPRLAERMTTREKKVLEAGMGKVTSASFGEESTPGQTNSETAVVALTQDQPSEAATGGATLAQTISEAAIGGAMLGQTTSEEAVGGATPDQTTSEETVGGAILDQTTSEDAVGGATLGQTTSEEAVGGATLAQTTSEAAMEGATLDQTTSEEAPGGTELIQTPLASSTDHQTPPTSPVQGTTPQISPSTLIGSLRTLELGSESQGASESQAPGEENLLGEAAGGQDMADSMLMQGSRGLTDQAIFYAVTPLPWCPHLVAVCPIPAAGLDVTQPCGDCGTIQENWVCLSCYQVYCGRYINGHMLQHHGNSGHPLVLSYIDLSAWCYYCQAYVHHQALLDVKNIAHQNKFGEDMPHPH
test: Inhibition of HDAC6 activity (fluorimetric assay)
reportedConditions: test concentrations 0.1, 1, 10, 100 and 1000 nM; 37° C., 60 minutes
Experimental: Assays were performed using a HDAC1 fluorimetric drug discovery assay kit (Enzolifesciences: BML-AK511) and a HDAC6 human recombinant (Calbiochem: 382180). […] The treated assay mixture was allowed to react at 37° C. for 60 minutes, and then was treated with a developer and allowed to stand at 37° C. for 30 minutes, followed by quantification of the fluorescence.
assayMetric: IC50 (nM)

- smilesText: "CC(C)(F)CN1CCN(c2ccnc3c2ccn3Cc2ccc(C(=O)NO)cc2)CC1"
  valueMeasured: 9
- smilesText: "O=C(NO)c1ccc(Cn2ccc3c(C4CCN(Cc5ccc(CN6CCOCC6)cc5)CC4)ccnc32)cc1"
  valueMeasured: 5.7
- smilesText: "O=C(NO)c1ccc(Cn2ccc3cc(C4CCN(C(=O)c5cccc(F)c5)CC4)cnc32)cc1"
  valueMeasured: 7
- smilesText: "CN1CCC(c2cnc3c(ccn3Cc3ccc(C(=O)NO)cc3)c2)CC1"
  valueMeasured: 7.8
- smilesText: "CC(C)CN1CCC(c2cnc3c(ccn3Cc3ccc(C(=O)NO)cc3)c2)CC1"
  valueMeasured: 11.5
- smilesText: "O=C(NO)c1ccc(Cn2ccc3cc(C4CCN(Cc5ccc(CN6CCOCC6)cc5)CC4)cnc32)cc1"
  valueMeasured: 7.5
- smilesText: "CN1CCN(Cc2ccc(CN3CCC(c4ccnc5c4ccn5Cc4ccc(C(=O)NO)cc4)CC3)cc2)CC1"
  valueMeasured: 5.9
- smilesText: "COc1cccc(CN2CCN(c3ccnc4c3ccn4Cc3ccc(C(=O)NO)cc3)CC2)c1"
  valueMeasured: 5.7
- smilesText: "O=C(NO)c1ccc(Cn2ccc3cc(C4CCN(Cc5cccc(F)c5)CC4)cnc32)cc1"
  valueMeasured: 18
- smilesText: "CN1CCN(Cc2cccc(CN3CCC(c4ccnc5c4ccn5Cc4ccc(C(=O)NO)cc4)CC3)c2)CC1"
  valueMeasured: 11.5
- smilesText: "CC(C)(C)OC(=O)N1CCC(c2cnc3c(ccn3Cc3ccc(C(=O)NO)cc3)c2)CC1"
  valueMeasured: 28
- smilesText: "CC(C)(C)OC(=O)N1CC=C(c2ccc3ccn(Cc4ccc(C(=O)NO)cc4)c3n2)CC1"
  valueMeasured: 62
- smilesText: "C[C@@H]1CN(c2cnc3c(ccn3Cc3ccc(C(=O)NO)cc3)c2)C[C@H](C)N1CC(C)(C)F"
  valueMeasured: 12
- smilesText: "O=C(NO)c1ccc(Cn2ccc3cc(C4CCN(C(=O)c5ccc(CN6CCOCC6)cc5)CC4)cnc32)cc1"
  valueMeasured: 7.4
- smilesText: "CC(C)(C)OC(=O)N1CC=C(c2nccc3c2ccn3Cc2ccc(C(=O)NO)cc2)CC1"
  valueMeasured: 17
- smilesText: "O=C(NO)c1ccc(Cn2ccc3cc(C4CCN(Cc5ccncc5)CC4)cnc32)cc1"
  valueMeasured: 6.9
- smilesText: "O=C(NO)c1ccc(Cn2ccc3cc(C4CCN(Cc5ccccc5F)CC4)cnc32)cc1"
  valueMeasured: 17.5
